Test system: MCF7
Assay Summary: Antiproliferative activity against human MCF7 cells assessed as cell viability after 48 hrs MTT assay
Format: functional, cell-based
Test Parameters: MCF7, 48 h
Lab note - cut at 3000 nM for IC50: Satisfied if strictly below, Not satisfied if not.

Would you please look over these solved cases?
* O=C1C(Cl)=C(Nc2ccc(S(=O)(=O)Nc3ccccn3)cc2)C(=O)c2ccccc21 | Satisfied
* O=C1C(Cl)=C(Nc2ccc(S(=O)(=O)Nc3ccccc3[N+](=O)[O-])cc2)C(=O)c2ccccc21 | Not satisfied
* Cc1csc(NC(=O)c2ccc(NC3=C(Cl)C(=O)c4ccccc4C3=O)cc2)n1 | Satisfied
* O=C(Nc1ccc(Cl)cc1)c1ccc(NC2=C(Cl)C(=O)c3ccccc3C2=O)cc1 | Not satisfied

Lookup: Could you please tell me whether IC50 recorded for `O=C1C(Cl)=C(Nc2ccc(S(=O)(=O)Nc3ccc([N+](=O)[O-])cc3)cc2)C(=O)c2ccccc21` is less than 3000 nM?
Found: Satisfied

====

Exercise: for every item that follows, state its recorded log10(IC50).
Tested on: MCF7
Assay Summary: Antiproliferative activity against human MCF7 cells assessed as cell viability after 48 hrs MTT assay
Type: functional, cell-based
Test Parameters: MCF7, 48 h
Recorded IC50 (log10, µM)

The examples below pair each entry with its known result.
* Cc1ccc(NC(=O)c2ccc(NC3=C(Cl)C(=O)c4ccccc4C3=O)cc2)nc1 | 0.62
* O=C(Nc1ccc([N+](=O)[O-])cc1)c1ccc(NC2=C(Cl)C(=O)c3ccccc3C2=O)cc1 | 1.21
* COc1cccc2c1C(=O)c1c(O)c3c(c(O)c1C2=O)C[C@@](O)(C(=O)CO)C[C@@H]3O[C@H]1C[C@H](N)[C@H](O)[C@H](C)O1 | -0.03

For each of the compounds below, state log10(IC50).
1. O=C(Nc1cccc(Cl)c1)c1ccc(NC2=C(Cl)C(=O)c3ccccc3C2=O)cc1
2. O=C1C(Cl)=C(Nc2ccc(S(=O)(=O)Nc3cccc4ccccc34)cc2)C(=O)c2ccccc21
3. COc1cc(NS(=O)(=O)c2ccc(NC3=C(Cl)C(=O)c4ccccc4C3=O)cc2)cc(OC)c1
4. Cc1cc(NC(=O)c2ccc(NC3=C(Cl)C(=O)c4ccccc4C3=O)cc2)no1
5. Cc1cccc(NC(=O)c2ccc(NC3=C(Cl)C(=O)c4ccccc4C3=O)cc2)c1

Found:
1. 1.22
2. 0.52
3. 0.34
4. 1.01
5. 1.16

====

Please provide measured inhibition for the entries that follow.
System Name: Proteasome Macropain subunit MB1 (Homo sapiens)
Assay Summary: Inhibition of chymotrypsin-like activity 20S proteasome beta subunit 5 of human MCF7 cells using fluorogenic substrate Suc-LLVY-AMC at 10 uM after 1 hr by fluorescence analysis relative to control
Format: cell-based
Give bare numbers, in %.

See these solved cases before continuing.
- Cc1ccnc(NS(=O)(=O)c2ccc(NC3=C(Cl)C(=O)c4ccccc4C3=O)cc2)c1: 11.7
- O=C1C(Cl)=C(Nc2ccc(S(=O)(=O)Nc3ccc([N+](=O)[O-])cc3)cc2)C(=O)c2ccccc21: 26

Lookup: I'd like to know its inhibition. The molecule in question is `Cc1cccnc1NS(=O)(=O)c1ccc(NC2=C(Cl)C(=O)c3ccccc3C2=O)cc1`
Found: 14.8

====

Kindly state IC50 for each of the entries shown.
System: MCF7
Assay Summary: Antiproliferative activity against human MCF7 cells assessed as cell viability after 48 hrs MTT assay
Type: functional, cell-based
Test Parameters: MCF7, 48 h
Answers are plain numbers, in µM.

Some molecules with recorded IC50:
• O=C(Nc1ccccc1)c1ccc(NC2=C(Cl)C(=O)c3ccccc3C2=O)cc1 = 15.4
• O=C1C(Cl)=C(Nc2ccc(S(=O)(=O)Nc3ccc(Cl)cn3)cc2)C(=O)c2ccccc21 = 4.43
• O=C(Nc1cccnc1)c1ccc(NC2=C(Cl)C(=O)c3ccccc3C2=O)cc1 = 6.04

Please look at the following molecule next.
Lookup: Value lookup for IC50; key = `Cc1ccc(NS(=O)(=O)c2ccc(NC3=C(Cl)C(=O)c4ccccc4C3=O)cc2)nc1`
Found: 1.79
